biological target: Enoyl-[acyl-carrier-protein] reductase [NADPH] FabI (Staphylococcus aureus, UniProt Q6GI75); experiment: Evaluated for inhibition of enoyl acyl carrier protein reductase (FabI) in Staphylococcus aureus.
Sequence (Q6GI75 whole entry): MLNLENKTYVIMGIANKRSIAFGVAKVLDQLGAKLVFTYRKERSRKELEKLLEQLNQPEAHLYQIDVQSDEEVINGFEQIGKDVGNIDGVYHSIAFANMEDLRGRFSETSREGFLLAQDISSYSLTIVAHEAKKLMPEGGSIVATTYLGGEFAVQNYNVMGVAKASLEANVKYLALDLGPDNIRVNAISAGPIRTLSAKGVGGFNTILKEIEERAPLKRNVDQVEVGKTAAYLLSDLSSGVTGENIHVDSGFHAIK

{"cpd_smiles": "Cc1ccc(Cn2cnc(-c3cccc(Cl)c3Cl)c2)cc1", "unit_of_measure": "µM", "inequality_symbol": ">", "IC50": 10}
{"cpd_smiles": "Cc1ccccc1Cn1cnc(-c2ccsc2)c1", "unit_of_measure": "µM", "inequality_symbol": "=", "IC50": 36.5}
{"cpd_smiles": "COc1ccc(Cn2cnc(-c3ccsc3)c2)cc1", "unit_of_measure": "µM", "inequality_symbol": "=", "IC50": 1.9}
{"cpd_smiles": "O=C(O)c1cccc(Cn2cnc(-c3ccsc3)c2)c1", "unit_of_measure": "µM", "inequality_symbol": ">", "IC50": 100}
{"cpd_smiles": "Nc1ccc(Cn2cnc(-c3ccsc3)c2)cc1", "unit_of_measure": "µM", "inequality_symbol": "=", "IC50": 2.03}
{"cpd_smiles": "O=[N+]([O-])c1cccc(Cn2cnc(-c3ccsc3)c2)c1", "unit_of_measure": "µM", "inequality_symbol": "=", "IC50": 14.7}
{"cpd_smiles": "Cc1ccc(Cc2coc(-c3ccsc3)n2)cc1", "unit_of_measure": "µM", "inequality_symbol": ">", "IC50": 100}
